# Test system: BT-549 breast
# ASSAY_METHOD_TEXT: NCI tumour cell line growth inhibition, 48 h
QUANTITY_NAME: TGI (µM)
Kindly provide the numeric value in µM only, without the unit symbol.

Query string: Tell me measured TGI for C=C1CCC2C3(C)COC(c4ccccc4F)OC3CCC2(C)C1C/C=C1/C(=O)OCC1O (centres undefined) please.
Result string: 5.76

Query string: Tell me measured TGI for `COc1ccccc1Nc1nnc(-c2c[nH]c3ccccc23)o1` please.
Result string: 26

----------
# Tested on: EKVX NSCLC
# ASSAY_METHOD_TEXT: NCI tumour cell line growth inhibition, 48 h
QUANTITY_NAME: GI50

Query string: Tell me measured GI50 for `COc1ccc(C(=O)Nc2ccc(-c3ccc4c(c3)NC(=O)/C4=C\c3ccc[nH]3)cc2)cc1` please.
Result string: 2.46 µM

Query string: Tell me measured GI50 for `Cn1cc(-c2cc(N)n3nc(-c4c[nH]c5ccc(F)cc45)cc3n2)c2cc(Br)cnc21` please.
Result string: > 100 µM

Query string: Tell me measured GI50 for `COc1ccccc1Nc1nnc(-c2c[nH]c3ccccc23)o1` please.
Result string: 2.63 µM

Query string: Tell me measured GI50 for `COc1ccc2c(c1)c(-c1cc3nc(-c4cn(C)c5ncc(Br)cc45)cc(N)n3n1)cn2C` please.
Result string: 1.48 µM
